FYI, the data here is from patent US20060135551A1.

Molecular target: Recombinant CETP enzyme (Homo sapiens)
Sequence (P11597 18-493): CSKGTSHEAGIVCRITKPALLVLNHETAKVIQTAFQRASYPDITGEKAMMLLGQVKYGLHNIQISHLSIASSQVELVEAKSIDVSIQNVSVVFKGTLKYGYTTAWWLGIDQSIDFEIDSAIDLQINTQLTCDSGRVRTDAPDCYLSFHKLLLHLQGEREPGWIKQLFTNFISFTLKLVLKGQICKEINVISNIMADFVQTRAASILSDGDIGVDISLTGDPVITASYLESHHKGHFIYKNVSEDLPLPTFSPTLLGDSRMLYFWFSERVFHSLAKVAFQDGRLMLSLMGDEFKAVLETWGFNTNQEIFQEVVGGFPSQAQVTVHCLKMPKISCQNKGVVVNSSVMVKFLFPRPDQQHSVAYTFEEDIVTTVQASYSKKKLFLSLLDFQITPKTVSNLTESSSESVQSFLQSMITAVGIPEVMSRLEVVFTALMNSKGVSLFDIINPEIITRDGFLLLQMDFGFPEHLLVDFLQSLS
Assay: In vitro fluorescence-based CETP inhibition assay (BODIPY-CE transfer from donor to acceptor microemulsions)
Details: recombinant CETP 0.14 ng/μl; transfer of fluorescent cholesteryl ester monitored over 2 hours; compared to DMSO controls
READOUT_KIND: IC50 (µM)
# output: bare number, implied unit µM

[Q] Recorded IC50 of CCOC(=O)N1c2c(c(C)nn2C)C(N(Cc2cc(C(F)(F)F)cc(C(F)(F)F)c2)C(=O)OC)CC1CC (stereo not shown) [Example E1] , please.
[A] 4.6
